# ASSAY DETAILS: Determination of bioavailability in a dog
# Format: in vivo
# CONDITION SET: plasma, male beagle dogs, IV 1 mg/kg vs oral gavage 5 mg/kg
MEASURED ATTRIBUTE: bioavailability

Exercise: Give recorded bioavailability. `CN(C(=O)[C@@H]1[C@@H](Cc2ccnc(N)c2)C(=O)N1C(=O)N[C@@H](C1CCCCC1)C1CC1)c1ccccc1`
Solution: 11 to 30%

Exercise: Report bioavailability, nothing else, for this molecule: `CC[C@@H](NC(=O)N1C(=O)[C@H](Cc2ccnc(N)c2)[C@H]1C(=O)N(C)c1ccncc1)c1cccc(Cl)c1`
Solution: > 30%

Exercise: State its bioavailability for this molecule: `CC[C@@H](NC(=O)N1C(=O)[C@H](Cc2ccnc(N)c2)[C@H]1C(=O)N(C)c1ccccc1)C1CCCCC1`
Solution: > 30%

Exercise: Note bioavailability for the molecule shown: `CC[C@@H](NC(=O)N1C(=O)[C@H](Cc2ccnc(N)c2)[C@H]1C(=O)N(C)c1ccncc1)C1CCCCC1`
Solution: 11 to 30%

Exercise: Identify the reported bioavailability for the following entry. `CC[C@@H](NC(=O)N1C(=O)[C@H](Cc2ccnc(N)c2)[C@H]1C(=O)N(C)c1ncccn1)c1ccccc1`
Solution: > 30%

Exercise: Report bioavailability, nothing else, for this molecule: `CC[C@@H](NC(=O)N1C(=O)[C@H](Cc2ccnc(N)c2)[C@H]1C(=O)N(CC)c1ncccn1)C1CCCCC1`
Solution: ≤ 10%

====

# ASSAY DETAILS: Caco-2 cell permeability assay (A-B and B-A)
# Format: in vitro ADME
# CONDITION SET: human, B-A direction
Assignment: determine reported Papp B→A at 40 min, 10 μM for the given compounds.

Exercise: Entry `CC[C@H](NC(=O)N1C(=O)[C@H](Cc2ccnc(N)c2)[C@H]1C(=O)N(C)c1ccncc1)c1ccccc1C` needs its Papp B→A at 40 min, 10 μM filled in; supply it.
Solution: 31 to 50 ×10⁻⁶ cm/s

Exercise: Kindly indicate its recorded Papp B→A at 40 min, 10 μM. Item: `CC[C@@H](NC(=O)N1C(=O)[C@H](Cc2ccnc(N)c2)[C@H]1C(=O)N(C)c1ccncc1)c1cccc(Cl)c1`
Solution: 11 to 30 ×10⁻⁶ cm/s

Exercise: Supply reported Papp B→A at 40 min, 10 μM belonging to this compound: `CC[C@@H](NC(=O)N1C(=O)[C@H](Cc2cc(C)nc(N)c2)[C@H]1C(=O)N(C)c1ccccc1)C1CCCCC1`
Solution: ≤ 10 ×10⁻⁶ cm/s

Exercise: Give the reported Papp B→A at 40 min, 10 μM for this compound. `CC[C@@H](NC(=O)N1C(=O)[C@H](Cc2ccnc(N)c2)[C@H]1C(=O)N(C)c1cccc(OC)c1)C1CCCCC1`
Solution: ≤ 10 ×10⁻⁶ cm/s

Exercise: Fill in Papp B→A at 40 min, 10 μM for record `CC[C@@H](NC(=O)N1C(=O)[C@H](Cc2cc(C)nc(N)c2)[C@H]1C(=O)N(C)c1ccccc1)c1cccc(Cl)c1`
Solution: ≤ 10 ×10⁻⁶ cm/s

Exercise: Quick one: give measured Papp B→A at 40 min, 10 μM for `CC[C@@H](NC(=O)N1C(=O)[C@H](Cc2ccnc(N)c2)[C@H]1C(=O)N(C)c1ccccc1)c1cccnc1`
Solution: 31 to 50 ×10⁻⁶ cm/s

Exercise: Find the measured Papp B→A at 40 min, 10 μM of `CC[C@@H](NC(=O)N1C(=O)[C@H](Cc2ccnc(N)c2)[C@H]1C(=O)N(CC)c1cccc(Cl)c1)C1CCCCC1` and report it.
Solution: ≤ 10 ×10⁻⁶ cm/s

Exercise: Provide only the value of recorded Papp B→A at 40 min, 10 μM for `CC[C@@H](NC(=O)N1C(=O)[C@H](Cc2ccnc(NC)c2)[C@H]1C(=O)N(C)c1ncccn1)C1CCCCC1`
Solution: ≤ 10 ×10⁻⁶ cm/s

Exercise: Fill in reported Papp B→A at 40 min, 10 μM for this entry: `CC[C@@H](NC(=O)N1C(=O)[C@H](Cc2ccnc(N)c2)[C@H]1C(=O)N(C)c1ccccc1)C1CCCCC1`
Solution: 11 to 30 ×10⁻⁶ cm/s

Exercise: Identify measured Papp B→A at 40 min, 10 μM associated with `CC[C@@H](NC(=O)N1C(=O)[C@H](Cc2ccnc(N)c2)[C@H]1C(=O)N(CC)c1ncccn1)C1CCCCC1`
Solution: 11 to 30 ×10⁻⁶ cm/s

Exercise: Dear colleague, please send me the reported Papp B→A at 40 min, 10 μM for `CC[C@@H](NC(=O)N1C(=O)[C@H](Cc2ccnc(N)c2)[C@H]1C(=O)N(C)c1ccncc1)c1ccccc1Cl` when you can.
Solution: 31 to 50 ×10⁻⁶ cm/s

====

Can you tell me fraction unbound at 4 h, 10 μM for the items I'm about to list?
# ASSAY DETAILS: Plasma protein binding by equilibrium dialysis
# Type: in vitro ADME
# CONDITION SET: both sexes, pooled plasma, pH 7.4, human plasma protein binding, read-out: PPB

Exercise: Give recorded fraction unbound at 4 h, 10 μM. CC[C@@H](NC(=O)N1C(=O)[C@H](Cc2cc(C)nc(N)c2)[C@H]1C(=O)N(C)c1ccccc1)c1cccc(Cl)c1 [Compound 120]
Solution: < 0.05

Exercise: Provide fraction unbound at 4 h, 10 μM value for the following compound: CN(C(=O)[C@@H]1[C@@H](Cc2ccnc(N)c2)C(=O)N1C(=O)N[C@@H](C1CCCCC1)C(F)(F)F)c1ccncc1 [Compound 18]
Solution: 0.1 to 0.5

Exercise: Give the reported fraction unbound at 4 h, 10 μM for this compound. CC[C@@H](NC(=O)N1C(=O)[C@H](Cc2ccnc(N)c2)[C@H]1C(=O)N(C)c1ccncc1)c1ccc(Cl)cc1 [Compound 89]
Solution: 0.05 to 0.09

Exercise: Note fraction unbound at 4 h, 10 μM for the compound shown: CC[C@@H](NC(=O)N1C(=O)[C@H](Cc2ccnc(N)c2)[C@H]1C(=O)N(C)c1ncccn1)c1cccnc1 [Compound 61]
Solution: < 0.5

Exercise: Please supply the value of reported fraction unbound at 4 h, 10 μM for the item CC[C@H](NC(=O)N1C(=O)[C@H](Cc2ccnc(N)c2)[C@H]1C(=O)N(C)c1ccncc1)c1ccccc1C [Compound 97]
Solution: 0.1 to 0.5

Exercise: In one line, give reported fraction unbound at 4 h, 10 μM of the entry CC[C@@H](NC(=O)N1C(=O)[C@H](Cc2ccnc(N)c2)[C@H]1C(=O)N(C)c1ccncc1)c1cccc(C)c1 [Compound 87] .
Solution: < 0.05

Exercise: State its fraction unbound at 4 h, 10 μM: CCC[C@@H](NC(=O)N1C(=O)[C@H](Cc2ccnc(N)c2)[C@H]1C(=O)N(C)c1ccccc1)C1CCCCC1 [Compound 50]
Solution: < 0.05

Exercise: Quickly give me recorded fraction unbound at 4 h, 10 μM for CC[C@@H](NC(=O)N1C(=O)[C@H](Cc2ccnc(NC)c2)[C@H]1C(=O)N(C)c1ncccn1)C1CCCCC1 [Compound 80]
Solution: < 0.05

Exercise: Dear colleague, please send me the reported fraction unbound at 4 h, 10 μM for CN(C(=O)[C@@H]1[C@@H](Cc2ccnc(N)c2)C(=O)N1C(=O)N[C@@H](C1CCCCC1)C(F)(F)F)c1cccc(F)c1 [Compound 22] when you can.
Solution: < 0.05

Exercise: Please supply the value of reported fraction unbound at 4 h, 10 μM for the item CC[C@@H](NC(=O)N1C(=O)[C@H](Cc2ccnc(N)c2)[C@H]1C(=O)N(C)c1ccncc1)C1CCCCC1 [Compound 25]
Solution: 0.1 to 0.5

Exercise: Read the entry CC[C@@H](NC(=O)N1C(=O)[C@H](Cc2ccnc(N)c2)[C@H]1C(=O)N(C)c1ncncn1)c1ccccc1 [Compound 83] and write its reported fraction unbound at 4 h, 10 μM.
Solution: 0.1 to 0.5

Exercise: // Input: CC[C@@H](NC(=O)N1C(=O)[C@H](Cc2ccnc(N)c2)[C@H]1C(=O)N(C)c1ccccc1)C1CC1 [Compound 46] . Output its fraction unbound at 4 h, 10 μM only.
Solution: 0.1 to 0.5

Exercise: Recall and state the measured fraction unbound at 4 h, 10 μM for CN(C(=O)[C@@H]1[C@@H](Cc2ccnc(N)c2)C(=O)N1C(=O)N[C@@H](C1CCCCC1)C(F)(F)F)c1cc(Cl)cc(Cl)c1 [Compound 23] .
Solution: < 0.05

Exercise: Determine its reported fraction unbound at 4 h, 10 μM: CN(C(=O)[C@@H]1[C@@H](Cc2ccnc(N)c2)C(=O)N1C(=O)N[C@@H](C1CCCCC1)C(F)(F)F)c1cncnc1 [Compound 19]
Solution: 0.05 to 0.09

Exercise: Check the records and state fraction unbound at 4 h, 10 μM for CN(C(=O)[C@@H]1[C@@H](Cc2ccnc(N)c2)C(=O)N1C(=O)N[C@@H](C1CCCCC1)C(F)(F)F)c1cccnc1 [Compound 17]
Solution: 0.1 to 0.5

Exercise: Retrieve fraction unbound at 4 h, 10 μM measured for CC[C@@H](NC(=O)N1C(=O)[C@H](Cc2cc(C)nc(N)c2)[C@H]1C(=O)N(C)c1ccccc1)C1CCCCC1 [Compound 91] and print it.
Solution: 0.05 to 0.09

Exercise: Please list fraction unbound at 4 h, 10 μM recorded for the compound Cc1ccccc1N(C)C(=O)[C@@H]1[C@@H](Cc2ccnc(N)c2)C(=O)N1C(=O)N[C@@H](C1CCCCC1)C(F)(F)F [Compound 15]
Solution: < 0.05

Exercise: Tell me measured fraction unbound at 4 h, 10 μM for CC[C@@H](NC(=O)N1C(=O)[C@H](Cc2ccnc(N)c2)[C@H]1C(=O)N(C)c1ccccc1)C1CCCCC1 [Compound 27] please.
Solution: 0.05 to 0.09

These entries and their values trace back to patent US20190315711A1.
